# measurement notes: RP, Waters ACQUITY UPLC HSS C18, 100 × 2.1 mm, 1.7 µm, 40 °C, 0.35 mL/min, estimated dead time 0.63 min; A: water + 0.1% formic acid; B: methanol + 0.1% formic acid; gradient (min/%B) 0/0.5 4/70 4.5/98 5.4/98
# condition details: stereoisomer not certain
So I've got a bunch of molecules here, and I need their LC retention time values.
Numeric answer only, unit min assumed.

// query # query: LC retention time of entry "Nc1nc2nccnc2c(=O)[nH]1"
// result 1.73

// query Another molecule to look at: "O=C(O)CCc1c[nH]c2ccccc12"
// result 4.63

// query Ok, now "O=C(O)Cc1c[nH]c2ccccc12"
// result 4.21

// query Param item: Nc1ccn(C2CC(O)C(CO)O2)c(=O)n1 (configuration not stated)
// result 1.29

// query Next up: "O=c1cc[nH]c(=O)[nH]1"
// result 1.18

// query Cool, now "NC(=O)c1ccccc1O"
// result 3.56

// query Can you handle "Cc1ncc(C[n+]2csc(CCOP(=O)(O)O)c2C)c(N)n1" next?
// result 0.762

// query Another: CCC1OC(=O)C(C)C(OC2CC(C)(OC)C(O)C(C)O2)C(C)C(OC2OC(C)CC(N(C)C)C2O)C(C)(O)CC(C)C(=O)C(C)C(O)C1(C)O (configuration not stated)
// result 4.82

// query Another molecule to check: CC(=O)OCC(N)C(=O)O (configuration not stated)
// result 0.854

// query Next entry: "CN(C)CCc1ccccc1"
// result 2.61

// query Please do the same for "COC(=O)c1ccc(O)c(OC)c1" as well.
// result 4.36

// query Request: "Cn1c(=O)[nH]c(=O)c2[nH]cnc21"
// result 2.17
